# experimental.system: PBP3 from Acinetobacter baumannii (ATCC 19606) (Acinetobacter baumannii, UniProt A0ABX6CK25)
# Sequence (A0ABX6CK25 64-610): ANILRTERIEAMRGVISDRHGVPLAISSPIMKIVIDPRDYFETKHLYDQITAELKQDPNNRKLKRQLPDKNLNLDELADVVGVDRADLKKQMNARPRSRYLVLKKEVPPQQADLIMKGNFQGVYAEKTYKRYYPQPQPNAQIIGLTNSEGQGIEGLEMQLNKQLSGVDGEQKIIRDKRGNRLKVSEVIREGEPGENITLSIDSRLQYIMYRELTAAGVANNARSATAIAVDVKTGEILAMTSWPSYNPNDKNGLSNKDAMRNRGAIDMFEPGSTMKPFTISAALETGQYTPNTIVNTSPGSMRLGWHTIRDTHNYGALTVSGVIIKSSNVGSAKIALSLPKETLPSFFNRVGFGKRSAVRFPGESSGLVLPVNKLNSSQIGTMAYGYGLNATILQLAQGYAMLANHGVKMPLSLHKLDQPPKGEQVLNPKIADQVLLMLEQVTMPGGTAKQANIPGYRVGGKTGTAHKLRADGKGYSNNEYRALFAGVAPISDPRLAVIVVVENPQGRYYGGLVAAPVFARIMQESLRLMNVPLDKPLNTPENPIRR
test.readout: IC50

Supply measured IC50 of O=C(NCCCN1CCN(C(=O)NC(C(=O)N[C@H]2Cc3ccc(F)c(C(=O)O)c3OB2O)c2cc(F)c(O)c(O)c2Cl)C(=O)C1=O)c1c(F)cncc1F (some centres unmarked) in your reply. < 10 µM

Tell me its IC50 given O=C(O)c1c(F)ccc2c1OB(O)[C@@H](NC(=O)[C@H](NC(=O)N1CCN(C3CCN(C(=O)c4cccc(O)c4)CC3)C1=O)c1cc(F)c(O)c(O)c1Cl)C2 (single isomer, unassigned) as the entry. < 10 µM

Look up and state reported IC50 for O=C(O)c1c(F)ccc2c1OB(O)[C@@H](NC(=O)C(NC(=O)N1CCN(C3CCN(C(=O)Nc4cc(O)cc(F)c4)CC3)C(=O)C1=O)c1cc(F)c(O)c(O)c1Cl)C2 (some centres unmarked) < 10 µM

Let me know recorded IC50 for O=C(O)c1c(F)ccc2c1OB(O)[C@@H](NC(=O)C(NC(=O)N1CCN(CCNC(=O)[C@@H]3CCCN3)C1=O)c1cc(F)c(O)c(O)c1Cl)C2 (some centres unmarked) , thanks. < 10 µM

Return value of IC50 for input CCN1CCN(C(=O)NC(C(=O)N[C@H]2Cc3cccc(C(=O)O)c3OB2O)c2ccc(P(=O)(O)O)c(O)c2)C(=O)C1=O (some centres unmarked) , no commentary. < 10 µM
